Hey, just so you know, these numbers are from patent US9725467B2.

Target: CA XII (Homo sapiens)
Sequence (O43570 30-291 limits assumed): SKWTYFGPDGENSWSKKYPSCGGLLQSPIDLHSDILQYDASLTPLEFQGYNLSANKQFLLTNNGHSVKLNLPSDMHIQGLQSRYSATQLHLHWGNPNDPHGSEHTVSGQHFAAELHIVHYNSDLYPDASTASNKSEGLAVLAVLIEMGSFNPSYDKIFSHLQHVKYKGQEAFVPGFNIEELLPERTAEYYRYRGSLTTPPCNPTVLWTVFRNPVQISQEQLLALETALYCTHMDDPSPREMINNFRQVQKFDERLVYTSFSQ
Assay: Fluorescent thermal shift assay (TSA), CA XII
Type: binding
Settings: 37° C., pH 7.0, read-out: Dissociation constants Kd to CA XII (converted)

molecule	Kd / nM
NS(=O)(=O)c1c(F)c(F)c(SCCc2ccccc2)c(F)c1NC1Cc2ccccc2C1 [Compound 3l]	1700
NS(=O)(=O)c1c(F)c(F)cc(F)c1NC1CCCCCCC1 [Compound 8a]	833
NS(=O)(=O)c1c(F)c(F)c(SCCc2ccccc2)c(F)c1NC1CCCCC1 [Compound 3f]	500
NS(=O)(=O)c1c(F)c(F)c(S(=O)(=O)CCc2ccccc2)c(N[C@@H](c2ccccc2)[C@H](O)c2ccccc2)c1F [Compound 9n]	250
NS(=O)(=O)c1c(F)c(F)c(SCCO)c(F)c1N[C@H]1CCc2ccccc21 [Compound 4e]	1250
NS(=O)(=O)c1c(F)c(F)c(S(=O)(=O)CCc2ccccc2)c(N[C@H](c2ccccc2)[C@@H](O)c2ccccc2)c1F [Compound 9o]	400
